IC50 for assorted molecules
Target: Norepinephrine (NE) uptake (Rattus norvegicus)
Sequence (Q63380 1-617): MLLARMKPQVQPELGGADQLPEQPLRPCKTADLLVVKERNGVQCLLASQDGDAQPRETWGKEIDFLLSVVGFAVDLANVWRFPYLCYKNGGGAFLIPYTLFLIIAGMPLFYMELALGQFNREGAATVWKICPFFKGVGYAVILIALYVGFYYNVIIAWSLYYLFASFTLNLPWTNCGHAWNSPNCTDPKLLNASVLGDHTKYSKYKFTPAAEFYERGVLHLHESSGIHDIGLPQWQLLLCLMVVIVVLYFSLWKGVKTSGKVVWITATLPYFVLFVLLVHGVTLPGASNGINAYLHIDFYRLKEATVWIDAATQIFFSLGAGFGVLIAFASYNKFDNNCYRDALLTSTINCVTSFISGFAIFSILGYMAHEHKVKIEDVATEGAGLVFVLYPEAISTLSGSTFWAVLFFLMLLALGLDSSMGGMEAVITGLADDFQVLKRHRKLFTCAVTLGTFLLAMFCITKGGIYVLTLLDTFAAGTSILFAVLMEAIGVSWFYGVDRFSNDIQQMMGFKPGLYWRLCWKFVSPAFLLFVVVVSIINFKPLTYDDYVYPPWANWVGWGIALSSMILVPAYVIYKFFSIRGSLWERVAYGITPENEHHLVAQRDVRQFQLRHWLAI
Experiment: Functional uptake of radiolabeled NE into synaptosomes from rat hypothalamus
Dear colleague, please return just the value in µM, with no unit written.

N[C@@H]1CC[C@@H](c2ccc(Cl)c(Cl)c2)c2ccccc21 (racemic) [1:1 mixture of Compounds P & Q]	0.0088
N[C@H]1CC[C@H](c2ccc(Cl)c(Cl)c2)c2ccccc21 [Compound Q]	0.035
N[C@@H]1CC[C@@H](c2ccc(Cl)c(Cl)c2)c2ccccc21 [Compound P]	0.0096
CN(C)CCCC1(c2ccc(F)cc2)OCc2cc(C#N)ccc21 (centres unmarked) [Citalopram]	7.9

Lab note: need IC50 with Norepinephrine (NE) uptake (Rattus norvegicus) for entry CC(NC(C)(C)C)C(=O)c1cccc(Cl)c1 (centres unmarked) [Bupropion, reference compound] , please look it up.
0.611
